Data provenance is paper PMC7803973.

- test_target: PfcFRS (Plasmodium falciparum, UniProt Q8I246)
- Sequence (Q8I246 1-575): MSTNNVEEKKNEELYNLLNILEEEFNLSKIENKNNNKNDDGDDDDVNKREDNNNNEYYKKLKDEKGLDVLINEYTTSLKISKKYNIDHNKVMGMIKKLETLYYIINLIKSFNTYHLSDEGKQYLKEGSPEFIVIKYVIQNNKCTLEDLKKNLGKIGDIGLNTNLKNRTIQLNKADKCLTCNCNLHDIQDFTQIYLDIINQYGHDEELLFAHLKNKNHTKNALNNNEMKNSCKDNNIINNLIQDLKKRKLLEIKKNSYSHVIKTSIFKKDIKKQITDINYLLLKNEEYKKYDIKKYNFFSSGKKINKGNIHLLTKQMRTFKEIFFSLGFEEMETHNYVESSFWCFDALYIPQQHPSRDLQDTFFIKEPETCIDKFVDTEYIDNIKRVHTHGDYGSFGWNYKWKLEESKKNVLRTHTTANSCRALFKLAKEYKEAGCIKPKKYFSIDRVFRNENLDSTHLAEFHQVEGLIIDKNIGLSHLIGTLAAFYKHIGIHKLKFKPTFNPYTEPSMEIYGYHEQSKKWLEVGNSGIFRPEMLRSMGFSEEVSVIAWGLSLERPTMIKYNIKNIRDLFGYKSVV
- Sequence (Q8IIW2 1-623 partner): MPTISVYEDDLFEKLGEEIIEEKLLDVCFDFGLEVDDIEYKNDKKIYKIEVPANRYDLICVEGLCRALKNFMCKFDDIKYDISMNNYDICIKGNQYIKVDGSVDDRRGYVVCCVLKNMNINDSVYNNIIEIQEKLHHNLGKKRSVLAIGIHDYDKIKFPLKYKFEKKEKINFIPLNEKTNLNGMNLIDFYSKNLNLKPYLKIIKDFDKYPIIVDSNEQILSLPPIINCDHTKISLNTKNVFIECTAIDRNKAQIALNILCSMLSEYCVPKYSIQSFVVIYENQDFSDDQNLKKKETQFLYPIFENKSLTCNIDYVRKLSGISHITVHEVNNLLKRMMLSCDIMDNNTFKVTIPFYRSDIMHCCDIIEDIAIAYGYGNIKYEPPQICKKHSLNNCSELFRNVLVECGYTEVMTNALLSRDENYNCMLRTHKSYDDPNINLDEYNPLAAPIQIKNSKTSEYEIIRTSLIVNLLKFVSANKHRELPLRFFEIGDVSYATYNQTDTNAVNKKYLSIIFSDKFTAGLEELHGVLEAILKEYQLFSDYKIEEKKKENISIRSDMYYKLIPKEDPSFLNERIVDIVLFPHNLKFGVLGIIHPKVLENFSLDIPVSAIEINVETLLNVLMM
- experiment_notes: PfcFRS mode of inhibition study (malachite green)
- Format: biochemical
- conditions_used: ATP varied, L-Phe saturating; non-competitive inhibition model
measured_endpoint: Ki (nM)

- COC[C@@H]1[C@H](c2ccc(C#Cc3ccccc3)cc2)[C@@H]2CN(C(=O)Nc3ccc(OC4CC4)cc3)C[C@@H](O)[C@@H](O)CN12 [BRD1389]: 10

---

- test_target: PfcFRS (Plasmodium falciparum)
- experiment_notes: Surface plasmon resonance binding
- conditions_used: Pf; SPR, 1:1 binding model; read-out: Kd (cFRS)
measured_endpoint: Kd (nM)

• COC[C@@H]1[C@H](c2ccc(C#Cc3ccccc3)cc2)[C@@H]2CN(C(=O)Nc3ccc(OC4CC4)cc3)C[C@@H](O)[C@@H](O)CN12 [BRD1389] = 4
